Experiment: In vivo tests - dogs, oral suspension, serum levels by LC/MS/MS
Conditions: dog, 3 male beagle dogs, fasted, oral gavage of OPC suspension, 3 mgA/kg
observation_type: Cmax (ng/mL)
Just the number in ng/mL, nothing appended.

In plain terms, CC[C@@H]1C[C@H](N(Cc2cc(C(F)(F)F)cc(C(F)(F)F)c2)c2nnn(C)n2)c2cc(C(F)(F)F)ccc2N1C(=O)[C@H]1CC[C@H](CC(N)=O)CC1 has a documented Cmax of 186

====

Experiment: In vivo tests - dogs, oral suspension, serum levels by LC/MS/MS
Conditions: dog, 3 male beagle dogs, fasted, oral gavage of OPC suspension, 3 mgA/kg
observation_type: AUC(0-inf) (µg·h/mL)
API: value field is a number in µg·h/mL; no unit string.

Data point: CC[C@@H]1C[C@H](N(Cc2cc(C(F)(F)F)cc(C(F)(F)F)c2)c2nnn(C)n2)c2cc(C(F)(F)F)ccc2N1C(=O)[C@H]1CC[C@H](CC(N)=O)CC1 ; AUC(0-inf) = 2.69
